- study system: human mesothelin polypeptide (human) (UniProt Q13421)
- assay comment: ELISA and SPR (Blitz) on a human mesothelin polypeptide
recorded metric: log10 EC50 (log10 of the value in nM)
Could you please treat all values as log10 of EC50 in nM?

Known log10 EC50 results, listed for orientation:
binder="Clone #2 VH domain (protein) VH: EVQLVESGGGVVQPGRSLRLSCAASGFTFSSYAMHWVRQAPGKGLEWIGYIYTSGSTNYNPSLKSRVTISRDDSTNTLYLQMNSLRAEDTATYYCARTPRGRDSSGYYQSPHAFDIWGQGTLVTVSS" value_reported=0.20
binder="Clone #9 VH domain (protein) VH: EVQLVESGGGVVQPGRSLRLSCAASGFTFSSYAMHWVRQAPGKGLEWVSGISYNGDHTYYADSVKGRSTVSRDNAKNTLYLQMDSLRPEDTAMYYCTRNYFFDYWGQGTLVTVSS" value_reported=2.97
binder="Clone #4 VH domain (protein) VH: EVQLVESGGGVVQPGRSLRLSCAASGFTFSSYAMHWVRQAPGKGLEWVSSISGNSLYKYYADSVKGRFTISRDDSTNTLYLQMNSLRAEDTATYYCTRHWAVGNWGQGTLVTVSS" value_reported=0.23
binder="Clone #12 VH domain (protein) VH: EVQLVETGGDLAQPGESLRLSCVASGFTFSSSWMTWIRQAPGKGLEWVSSLSGRSEKTFYADSVKGRFTVSRDNAKNTLYLQMDSLRPEDTATYYCASGWALVWGQGTLVTVSS" value_reported=0.11
binder="Clone #6 VH domain (protein) VH: QVQLQQWGAGLLKPSETLSLTCAVYGGSFSGYYWSWIRQPPGKGLEWIGEINHSGSTNYNPSLKSRVTISVDTSKNQFSLKLSSVTAADTATYYCARSYRTVTYYKAYFQHWGQGTLVTVSS" value_reported=3.00

Entry Clone #3 VH domain (protein) VH: KVQLQQWGAGLLKPSETLSLTCAVYGGSFSGYYWSWIRQPPGKGLEWIGEINHSGSTNYNPSLKSRVTISVDTSKNQFSLKLSSVTAADTALYYCARTYRPHSYYYYGMDVWGQGTTVTVSS — recorded log10 EC50 = 1.58

Entry Clone #5 VH domain (protein) VH: EVQLVESGGGVVQPGRSLRLSCAASGLTFSSYAMHWVRQAPGKGLEWIGTIRYDGNTYYNPSLKSLVTISRDDSTNTLYLQMNSLRAEDTATYYCARRRYYDSSGYRGAAFDIWGQGTLVTVSS — recorded log10 EC50 = 2.47

Entry Clone #10 VH domain (protein) VH: EVQLVESGGGVVQPGRSLRLSCAASGFTFSSYAMHWVRQAPGKGLEWIGSIRHDGNTYYNPSLKSRVTVSRDNAKNTLYLQMDSLRAEDTAMYYCAKYGCSSISCSFDYWGQGTLVTVSS — recorded log10 EC50 = 2.03

The measurements presented in this section are drawn from patent US20240034807A1.
